Source: patent US8394775B2

# Inhibition effect on ROS production (control %) annotations
- System: Human keratinocytes HaCaT cell line
- test-description: Inhibition of reactive oxygen species (ROS) production using fluorescent material (DCFH-DA), UVB irradiation
- Type: cell-based
- condition-parameters: 6.25 uM; HaCaT cells, UVB 30 mJ/cm^2, DCF fluorescence
Kindly provide the numeric value in % only, without the unit symbol.

Examples from the recorded data:
COc1ccc(-c2oc3c(CC=C(C)C)c(O)cc(O)c3c(=O)c2O)cc1: 68.2
COc1ccc(-c2oc3c(CC=C(C)C)c(O[C@@H]4O[C@H](CO)[C@@H](O)[C@H](O)[C@H]4O)cc(O)c3c(=O)c2O[C@@H]2O[C@@H](C)[C@H](O)[C@@H](O)[C@H]2O)cc1: 98.1
COc1ccc(-c2oc3c(CC=C(C)C)c(O)cc(O)c3c(=O)c2O[C@@H]2O[C@H](C)[C@@H](O)[C@H](O)[C@@H]2O)cc1 [Icariside II]: 63.2

Please examine the following record next.
Give the measured Inhibition effect on ROS production (control %) for COc1ccc(-c2oc3c(CC=C(C)C)c(O[C@@H]4O[C@H](CO)[C@@H](O)[C@H](O)[C@H]4O)cc(O)c3c(=O)c2O)cc1 [Icariside I]
65.6
